ASSAY: Organ biodistribution of DTG in mice (HPLC)
Type: in vivo
MEASUREMENT_CONTEXT: mouse, lungs; Balb-C mice, IV, 10 mg/kg; read-out: AUC of biodistribution of DTG in lungs
Experimental: After validating the developed HPLC method, the same was utilized to quantify the drug present in the plasma and organ (lungs, liver, kidney, heart, brain, and uterus) samples collected at predetermined time points. […] The concentration of the drug in each sample was determined by the developed HPLC method, followed by the pharmacokinetic parameters and biodistribution pattern evaluation.
MEASURED_ATTRIBUTE: AUC (ng·h/mL)
One number for each entry, in ng·h/mL.

Given item `C[C@@H]1CCO[C@H]2Cn3cc(C(=O)NCc4ccc(F)cc4F)c(=O)c(O)c3C(=O)N12` , the value recorded as its AUC is 4300
